experiment: viability loss in PTEN-deleted colon tumor cells – cell-based, HCT116, CellTiter-Glo, primary screen (AID 827); details: HCT116 PTEN-null viability, 60 h, at 10 µM, hits give low values;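 also: PTEN knockout HCT116 line with beta catenin targeted HCT116 as companion control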
The whole screen tested about 140,000 compounds, of which about 1,700 (1.2%) were called active. The list comes from a sample in which actives are over-represented; it also holds close analogues and randomly drawn compounds.
Classes (viability): low-valued (below 50%), mid-valued (50% to below 90%), high-valued (90% or more)

{"columns": ["COMPOUND", "GROUP_LABEL"],
 "data": [
  ["Oc1c(CN2CCN(c3ccc(F)cc3)CC2)cc(Cl)c2cccnc12", "low-valued"],
  ["CCOC(=O)CN(Cc1ccc(OC)c(OC)c1)S(=O)(=O)c1ccc(OC)cc1", "high-valued"],
  ["COc1ccccc1N1N=C(c2cccs2)CC1c1ccccc1 (stereo unspecified)", "mid-valued"],
  ["NC1=NN(c2cccc(C(=O)O)c2)C(=O)C1", "high-valued"],
  ["CCCc1nc2c([nH]1)C(c1cccnc1)C(C#N)=C(N)O2 (stereo unspecified)", "high-valued"],
  ["N#C/C(=C/c1cccc([N+](=O)[O-])c1)c1nnc2n1CCCCC2", "low-valued"]
]}

State the class of the compound shown: "CCn1c(/C=C/c2ccc([N+](=O)[O-])o2)nc2ccccc2c1=O"
low-valued

State the class of the compound shown: "O=C(Nc1cccc2ccccc12)N1CCN(Cc2ccc3c(c2)OCO3)CC1"
low-valued

State the class of the compound shown: CCCN=C1NC(=O)C(CC(=O)NCCc2ccc(OC)c(OC)c2)S1 (stereo unspecified)
high-valued

State the class of the compound shown: "COc1ccc2nc(Nc3nc4cc5c(cc4s3)OCCO5)sc2c1"
high-valued

State the class of the compound shown: "O=c1[nH]n(-c2cccc(Cl)c2)c2ncccc12"
high-valued

State the class of the compound shown: "CC(C)CC[n+]1ccn(C2=C([O-])c3ccccc3C(=O)/C2=N\S(=O)(=O)c2ccccc2)c1"
low-valued

State the class of the compound shown: "N=c1c2c(-c3ccccc3)c(-c3ccccc3)n(Cc3ccccc3)c2ncn1CCCO"
low-valued

State the class of the compound shown: "COCCCNC(=O)Cn1cc(/C=C(\C#N)C(=O)N2CCN(c3ccccc3)CC2)c2ccccc21"
mid-valued

State the class of the compound shown: "CCc1ccc(-c2nn(-c3ccccc3)cc2CSC(=N)N)cc1"
low-valued

State the class of the compound shown: "Cc1cc(OCCCC(=O)NCCN2C(=O)S/C(=C\c3cccnc3)C2=O)ccc1Cl"
mid-valued
